assay.name: Prodrug in vivo pharmacokinetics in dogs (plasma, LC-MS-MS)
Design: species or system Dog (Beagle)
reported.conditions: Beagle, dog, plasma, po, 2 mg/kg, Example 71 in dog plasma after oral Example 71 (2 mg/kg active); Mean
metric.name: half-life (min)
Give the value in min but do not write min after it.

Which half-life is reported for this compound? Cl.N[C@H]1Cc2cc(Oc3ccccc3)ccc2N(O)C1=O [Example 71]
22.1

----------
assay.name: Prodrug in vivo pharmacokinetics in dogs (plasma, LC-MS-MS)
Set-up: species or system Dog (Beagle)
reported.conditions: Beagle, dog, plasma, po, 1 mg/kg, Example 72 in dog plasma after oral Example 72 (1 mg/kg active); Mean
metric.name: Cmax (ng/mL)
Give the value in ng/mL but do not write ng/mL after it.

Which Cmax is reported for this compound? CN(C)C(=O)ON1C(=O)[C@@H](N)Cc2cc(Oc3ccccc3)ccc21 [Example 72]
195

----------
assay.name: Prodrug in vivo pharmacokinetics in monkeys (plasma, LC-MS-MS)
Parameters: species or system Monkey (Cynomolgus)
reported.conditions: Cynomolgus, cynomolgus monkey, plasma, po, 10 mg/kg, Example 4 in monkey plasma after oral Example 4 (10 mg/kg active); Monkey 2; read-out: AUC Extrap
metric.name: AUC (ng·h/mL)
Give the value in ng·h/mL but do not write ng·h/mL after it.

Which AUC is reported for this compound? "N[C@H]1Cc2ccccc2N(O)C1=O"
247

----------
assay.name: Prodrug in vivo pharmacokinetics in dogs (plasma, LC-MS-MS)
Design: species or system Dog (Beagle)
reported.conditions: Beagle, dog, plasma, po, 1 mg/kg, Example 72 in dog plasma after oral Example 72 (1 mg/kg active); Dog 2; read-out: AUC
metric.name: AUC
Answers without a unit are incomplete; give the number and then its unit.

Which AUC is reported for this molecule? "CN(C)C(=O)ON1C(=O)[C@@H](N)Cc2cc(Oc3ccccc3)ccc21"
721 ng·h/mL

----------
assay.name: Prodrug in vivo pharmacokinetics in monkeys (plasma, LC-MS-MS)
Set-up: species or system Monkey (Cynomolgus)
reported.conditions: cynomolgus monkey, plasma, po, 3 mg/kg, Example 71 in monkey plasma after oral Example 71 (3 mg/kg active); Monkey 1; read-out: AUC
Description: Test substances (Examples 4 and 71-73) were administered by oral gavage to groups of two monkeys. Blood samples were taken at various times after administration and submitted to analysis for the parent drug (Example 4 and Example 71) and pro-drug (Examples 72 and 73) using an LC-MS-MS assay. […] Pharmacokinetic parameters derived from the plasma analytical data were determined using Watson LIMS 7.2.003 (Thermo Fisher Scientific, Waltham, Mass.). […]
metric.name: AUC (ng·h/mL)
Give the value in ng·h/mL but do not write ng·h/mL after it.

Which AUC is reported for this compound? "Cl.N[C@H]1Cc2cc(Oc3ccccc3)ccc2N(O)C1=O"
55.5

----------
test.system: human KAT II (hKAT II) enzyme (Homo sapiens)
Sequence (Q8N5Z0 30-425): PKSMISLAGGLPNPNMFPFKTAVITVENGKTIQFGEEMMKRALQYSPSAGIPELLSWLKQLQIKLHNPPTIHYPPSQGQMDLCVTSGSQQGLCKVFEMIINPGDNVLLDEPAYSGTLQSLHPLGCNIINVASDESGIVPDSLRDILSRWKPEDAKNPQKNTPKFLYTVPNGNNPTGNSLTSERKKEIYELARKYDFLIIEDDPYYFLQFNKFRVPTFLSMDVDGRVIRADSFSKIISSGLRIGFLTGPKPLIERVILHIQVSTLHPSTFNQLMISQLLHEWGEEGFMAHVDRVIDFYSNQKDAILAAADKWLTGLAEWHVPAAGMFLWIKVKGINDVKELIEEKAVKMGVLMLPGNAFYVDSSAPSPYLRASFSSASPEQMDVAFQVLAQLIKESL
assay.name: KAT II Inhibition Spectra Assay
Format: biochemical
reported.conditions: Table 6; hKAT II, decrease in OD370, 37° C., 15-20 h; read-out: KATII IC50
Method: Formation of kynurenic acid (KYNA) is indirectly assessed by a decrease in light absorbance at 370 nm (OD370) as the L-kynurenine (KYN) substrate is converted by the human KAT II (hKAT II) enzyme into KYNA. An inhibitor would therefore inhibit the decrease in OD370. […] Plates were sealed and incubated at 37° C. for 15-20 h before reading OD370 on a SpectraMax Plus plate reader. […]
Where a name gives a salt, the structure may show the parent alone.
metric.name: pIC50
Note: pIC50 values are expressed as the negative base-10 logarithm of concentration in M.

Examples with answers:
NC1Cc2cc(Oc3ccccc3F)ccc2N(O)C1=O (stereo not shown) ... 7.25
N#Cc1ccc(Oc2ccc3c(c2)C[C@H](N)C(=O)N3O)cc1C(F)(F)F [Example 164, trifluoroacetate salt] ... 7.37
N[C@H]1Cc2cc(Oc3ccc(Cl)c(Cl)c3)ccc2N(O)C1=O [Example 163, trifluoroacetate salt] ... 7.22
NC1Cc2cc(Oc3cc(F)ccc3F)ccc2N(O)C1=O (stereo not shown) ... 7.44
N[C@H]1Cc2c(ccc(Cl)c2F)N(O)C1=O ... 7.27

API: value(readout=pIC50, system=human KAT II (hKAT II) enzyme (Homo sapiens)) for record COc1cc2c(cc1Cc1ccccc1)C[C@H](N)C(=O)N2O [Example 75, hydrochloride salt]
7.45

API: value(readout=pIC50, system=human KAT II (hKAT II) enzyme (Homo sapiens)) for record COc1ncccc1-c1ccc2c(c1)C[C@H](N)C(=O)N2O [Example 151, trifluoroacetate salt]
7.20

API: value(readout=pIC50, system=human KAT II (hKAT II) enzyme (Homo sapiens)) for record NC1Cc2cc(Oc3ccc(OC(F)(F)F)cc3)ccc2N(O)C1=O (stereo not shown)
7.11

API: value(readout=pIC50, system=human KAT II (hKAT II) enzyme (Homo sapiens)) for record N[C@H]1Cc2cc(S(=O)(=O)c3ccccc3)ccc2N(O)C1=O [Example 67, hydrochloride salt]
7.38

----------
assay.name: Prodrug in vivo pharmacokinetics in monkeys (plasma, LC-MS-MS)
Design: species or system Monkey (Cynomolgus)
reported.conditions: Cynomolgus, cynomolgus monkey, plasma, po, 10 mg/kg, Example 4 in monkey plasma after oral Example 4 (10 mg/kg active); Mean
metric.name: Cmax

Which Cmax is reported for this compound? "N[C@H]1Cc2ccccc2N(O)C1=O"
220 ng/mL

----------
assay.name: Prodrug in vivo pharmacokinetics in dogs (plasma, LC-MS-MS)
Design: species or system Dog (Beagle)
reported.conditions: Beagle, dog, plasma, po, 1 mg/kg, Example 72 in dog plasma after oral Example 72 (1 mg/kg active); Dog 1; read-out: AUC Extrap
Protocol: Test substances (Examples 4 and 71-73) were administered by oral gavage to groups of two dogs. Example 71 was also administered intravenously. Blood samples were taken at various times after administration and submitted to analysis for the parent drug (Example 71) and pro-drug (Examples 72 and 73) using an LC-MS-MS assay. Pharmacokinetic parameters derived from the plasma analytical data were determined using Watson LIMS 7.2.003 (Thermo Fisher Scientific, Waltham, Mass.). […]
metric.name: AUC (ng·h/mL)
Give the value in ng·h/mL but do not write ng·h/mL after it.

Which AUC is reported for this molecule? CN(C)C(=O)ON1C(=O)[C@@H](N)Cc2cc(Oc3ccccc3)ccc21 [Example 72]
455

----------
assay.name: Prodrug in vivo pharmacokinetics in dogs (plasma, LC-MS-MS)
Design: species or system Dog (Beagle)
reported.conditions: Beagle, dog, plasma, po, 2 mg/kg, Example 71 in dog plasma after oral Example 71 (2 mg/kg active); Dog 1; read-out: AUC Extrap
metric.name: AUC (ng·h/mL)
Give the value in ng·h/mL but do not write ng·h/mL after it.

Which AUC is reported for this compound? Cl.N[C@H]1Cc2cc(Oc3ccccc3)ccc2N(O)C1=O [Example 71]
10.7

----------
assay.name: Prodrug in vivo pharmacokinetics in dogs (plasma, LC-MS-MS)
Set-up: species or system Dog (Beagle)
reported.conditions: Beagle, dog, plasma, po, 2 mg/kg, Example 71 in dog plasma after oral Example 71 (2 mg/kg active); Mean
metric.name: Cmax (ng/mL)
Give the value in ng/mL but do not write ng/mL after it.

Which Cmax is reported for this compound? "Cl.N[C@H]1Cc2cc(Oc3ccccc3)ccc2N(O)C1=O"
20.4

----------
assay.name: Prodrug in vivo pharmacokinetics in dogs (plasma, LC-MS-MS)
Parameters: species or system Dog (Beagle)
reported.conditions: Beagle, dog, plasma, po, 2 mg/kg, Example 71 in dog plasma after oral Example 71 (2 mg/kg active); Mean; read-out: AUC
metric.name: AUC (ng·h/mL)
Give the value in ng·h/mL but do not write ng·h/mL after it.

Which AUC is reported for this molecule? Cl.N[C@H]1Cc2cc(Oc3ccccc3)ccc2N(O)C1=O [Example 71]
11.3

----------
assay.name: Prodrug in vivo pharmacokinetics in monkeys (plasma, LC-MS-MS)
Design: species or system Monkey (Cynomolgus)
reported.conditions: Cynomolgus, cynomolgus monkey, plasma, po, 3 mg/kg, Example 71 in monkey plasma after oral Example 71 (3 mg/kg active); Monkey 2
metric.name: Tmax (min)
Give the value in min but do not write min after it.

Which Tmax is reported for this molecule? "Cl.N[C@H]1Cc2cc(Oc3ccccc3)ccc2N(O)C1=O"
30

----------
assay.name: Prodrug in vivo pharmacokinetics in monkeys (plasma, LC-MS-MS)
Set-up: species or system Monkey (Cynomolgus)
reported.conditions: cynomolgus monkey, plasma, po, 3 mg/kg, Example 71 in monkey plasma after oral Example 71 (3 mg/kg active); Mean; read-out: AUC
metric.name: AUC (ng·h/mL)
Give the value in ng·h/mL but do not write ng·h/mL after it.

Which AUC is reported for this compound? "Cl.N[C@H]1Cc2cc(Oc3ccccc3)ccc2N(O)C1=O"
94.8

----------
assay.name: Prodrug in vivo pharmacokinetics in dogs (plasma, LC-MS-MS)
Design: species or system Dog (Beagle)
reported.conditions: Beagle, dog, plasma, po, 2 mg/kg, Example 71 in dog plasma after oral Example 71 (2 mg/kg active); Dog 2
metric.name: Tmax (min)
Give the value in min but do not write min after it.

Which Tmax is reported for this molecule? "Cl.N[C@H]1Cc2cc(Oc3ccccc3)ccc2N(O)C1=O"
15
